Values from ChEMBL document CHEMBL4732065

# target-of-assay: Cytochrome P450 1A2 (Homo sapiens)
# Sequence (P05177 whole entry): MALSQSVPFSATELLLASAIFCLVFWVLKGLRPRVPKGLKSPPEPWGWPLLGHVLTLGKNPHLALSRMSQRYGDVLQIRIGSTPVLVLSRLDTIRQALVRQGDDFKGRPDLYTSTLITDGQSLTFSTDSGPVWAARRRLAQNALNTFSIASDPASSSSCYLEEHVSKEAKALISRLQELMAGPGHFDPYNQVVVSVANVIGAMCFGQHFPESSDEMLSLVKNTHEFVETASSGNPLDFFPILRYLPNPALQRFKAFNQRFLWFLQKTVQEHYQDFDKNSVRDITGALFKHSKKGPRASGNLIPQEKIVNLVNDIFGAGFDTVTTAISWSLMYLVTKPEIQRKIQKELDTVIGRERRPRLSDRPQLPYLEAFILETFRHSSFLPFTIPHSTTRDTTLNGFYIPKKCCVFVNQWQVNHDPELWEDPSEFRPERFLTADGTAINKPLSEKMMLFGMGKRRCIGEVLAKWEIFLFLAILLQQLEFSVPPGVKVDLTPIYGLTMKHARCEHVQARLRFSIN
# test-details: Inhibition of recombinant human CYP1A2 using 7-ethoxyresorufin as substrate after 50 mins in presence of NADP+ by EROD assay
pIC50: −log10 of the molar value.
Below, each entry is listed alongside its reported pIC50.

{"smiles-input": "COc1ccc(OC)c2c1c(OC)cc1c(=O)cc(-c3ccc(O)nc3)oc12", "pIC50": "< 6.00"}
{"smiles-input": "COc1ccc(OC)c2c1c(OC)cc1c(=O)cc(-c3cncc(C)c3)oc12", "pIC50": 6.79}
{"smiles-input": "COc1ccc(OC)c2c1c(OC)cc1c(=O)cc(-c3c[nH]c4ncccc34)oc12", "pIC50": "< 6.00"}
{"smiles-input": "COc1ccc(OC)c2c1c(OC)cc1c(=O)cc(-c3cc4ccccc4o3)oc12", "pIC50": "< 6.00"}
{"smiles-input": "COc1ccc(OC)c2c1c(OC)cc1c(=O)cc(-c3ccc(N)cn3)oc12", "pIC50": "< 6.00"}
{"smiles-input": "COc1ccc(OC)c2c1c(OC)cc1c(=O)cc(-c3ccnnc3)oc12", "pIC50": "< 6.00"}
{"smiles-input": "COc1ccc(OC)c2c1c(OC)cc1c(=O)cc(-c3ccc4[nH]cnc4c3)oc12", "pIC50": "< 6.00"}
{"smiles-input": "COc1ccc(OC)c2c1c(OC)cc1c(=O)cc(-c3cncc(F)c3)oc12", "pIC50": 6.85}
{"smiles-input": "COc1ccc(OC)c2c1c(OC)cc1c(=O)cc(-c3ccncc3)oc12", "pIC50": 6.70}
{"smiles-input": "COc1ccc(OC)c2c1c(OC)cc1c(=O)cc(-c3ccc(N4CCN(C)CC4)cc3)oc12", "pIC50": "< 6.00"}
